Target or system: T1, shFcRn (soluble human FcRn) (human, UniProt P55899 24-297; P61769 21-119)
T1 construct: extracellular domain; Printed only as 'soluble human FcRn'; also called hFcRn (immobilized on a chip)
T1 sequence (P55899 24-297 limits assumed, chain 1 of 2): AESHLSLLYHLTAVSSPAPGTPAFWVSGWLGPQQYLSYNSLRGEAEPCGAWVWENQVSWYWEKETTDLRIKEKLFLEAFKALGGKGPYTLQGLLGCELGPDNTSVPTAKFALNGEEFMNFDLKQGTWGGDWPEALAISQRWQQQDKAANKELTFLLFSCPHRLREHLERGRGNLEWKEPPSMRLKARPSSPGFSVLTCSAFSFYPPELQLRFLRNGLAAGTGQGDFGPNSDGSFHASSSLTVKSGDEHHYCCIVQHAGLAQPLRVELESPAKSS
T1 sequence (P61769 21-119 limits assumed, chain 2 of 2): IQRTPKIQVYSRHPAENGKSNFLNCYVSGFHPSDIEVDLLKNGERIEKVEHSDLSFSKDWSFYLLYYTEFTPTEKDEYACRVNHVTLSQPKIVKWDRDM
Test name: SPR, hFcRn immobilized on chip, pH 7.4
Labelling field: enter TRUE if recorded Kd is less than 300 pM. Enter FALSE if it equals or exceeds that cut-off.

Could you please tell me whether Kd recorded for HL161AN variant No. 1 (LC:N25S, HC:C32S) (antibody, V domains shown, also called HL161ANS; #1 (HL161ANS)) VL: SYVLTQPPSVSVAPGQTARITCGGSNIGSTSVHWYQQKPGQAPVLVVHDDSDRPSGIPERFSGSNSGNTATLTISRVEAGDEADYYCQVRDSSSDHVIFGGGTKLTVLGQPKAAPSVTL VH: EVQLLESGGGLVQPGGSLRLSCAASEFTFGSSVMTWVRQAPGKGLEWVSVISGSGGSTYYADSVKGRFTISRDNSKNTLYLQMNSLRAEDTAVYYCAKTPWWLRSPFFDYWGQGTLVTVSS is less than 300 pM?
TRUE

Could you please tell me whether Kd recorded for HL161AN variant No. 4 (LC:N25S, HC:Q82T) (antibody, human IgG1, V domains shown, Variable domains only) VL: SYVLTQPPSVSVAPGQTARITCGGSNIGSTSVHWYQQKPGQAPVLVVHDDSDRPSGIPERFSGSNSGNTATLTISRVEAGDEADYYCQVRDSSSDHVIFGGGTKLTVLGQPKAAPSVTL VH: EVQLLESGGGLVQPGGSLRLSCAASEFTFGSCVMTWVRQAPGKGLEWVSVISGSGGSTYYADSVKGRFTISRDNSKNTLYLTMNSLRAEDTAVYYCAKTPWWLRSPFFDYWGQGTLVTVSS is less than 300 pM?
TRUE

Could you please tell me whether Kd recorded for HL161AN variant No. 16 (LC:N25Q, HC:Q82E) (antibody, human IgG1, V domains shown, Variable domains only) VL: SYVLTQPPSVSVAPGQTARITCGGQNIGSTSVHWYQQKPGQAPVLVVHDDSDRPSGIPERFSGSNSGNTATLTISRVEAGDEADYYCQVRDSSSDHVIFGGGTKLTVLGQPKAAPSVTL VH: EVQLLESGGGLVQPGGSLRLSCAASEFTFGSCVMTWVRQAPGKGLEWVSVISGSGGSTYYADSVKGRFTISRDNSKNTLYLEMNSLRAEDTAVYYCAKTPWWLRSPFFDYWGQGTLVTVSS is less than 300 pM?
FALSE

Could you please tell me whether Kd recorded for HL161AN variant No. 10 (LC:N25S, HC:C32Y Q82T) (antibody, human IgG1, V domains shown, Variable domains only) VL: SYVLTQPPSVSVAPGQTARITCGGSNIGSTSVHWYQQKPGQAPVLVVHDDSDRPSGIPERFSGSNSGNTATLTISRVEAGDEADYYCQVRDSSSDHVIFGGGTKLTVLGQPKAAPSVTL VH: EVQLLESGGGLVQPGGSLRLSCAASEFTFGSYVMTWVRQAPGKGLEWVSVISGSGGSTYYADSVKGRFTISRDNSKNTLYLTMNSLRAEDTAVYYCAKTPWWLRSPFFDYWGQGTLVTVSS is less than 300 pM?
FALSE
